Hello, the source for this data is patent US20180036441A1, in case you need it.

measuredOn: T1, MUC1 on HCT116/MUC1 cells (UniProt P15941 24-1255, limits assumed)
T1 construct: whole, on cells; also called MUC1 overexpressed cell line
runDescription: FACS titration, HCT116/MUC1 cells, antibody at 0.977 nM
So basically: is geometric mean under 3? Then fulfilled. Not under? Then not fulfilled.

Solved entries:
# binder, assignedLabel
rows = [
    ("VH1 + VL1 (antibody, V domains shown, Humanized IgG expressed in HEK293; also called humanized antibody VH1+VL1) VH: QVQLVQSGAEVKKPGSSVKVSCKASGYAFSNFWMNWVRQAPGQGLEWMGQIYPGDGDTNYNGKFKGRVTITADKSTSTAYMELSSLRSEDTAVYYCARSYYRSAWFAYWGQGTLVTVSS VL: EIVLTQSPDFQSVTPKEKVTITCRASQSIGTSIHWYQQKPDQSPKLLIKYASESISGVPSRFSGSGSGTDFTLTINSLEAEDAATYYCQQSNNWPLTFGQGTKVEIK", "not fulfilled"),
    ("VH3 + VL4 (antibody, V domains shown, Humanized IgG expressed in HEK293; also called humanized antibody VH3+VL4) VH: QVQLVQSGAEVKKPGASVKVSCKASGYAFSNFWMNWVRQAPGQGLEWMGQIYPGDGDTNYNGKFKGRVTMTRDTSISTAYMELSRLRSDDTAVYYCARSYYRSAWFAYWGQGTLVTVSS VL: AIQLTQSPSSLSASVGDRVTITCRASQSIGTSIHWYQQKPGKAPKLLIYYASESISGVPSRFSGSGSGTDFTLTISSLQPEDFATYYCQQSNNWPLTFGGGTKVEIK", "not fulfilled"),
]

Problem: For the binder VH3 + VL1 (antibody, V domains shown, Humanized IgG expressed in HEK293; also called humanized antibody VH3+VL1) VH: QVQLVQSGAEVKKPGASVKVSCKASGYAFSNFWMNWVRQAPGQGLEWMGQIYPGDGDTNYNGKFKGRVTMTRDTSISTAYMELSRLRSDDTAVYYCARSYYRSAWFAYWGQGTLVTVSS VL: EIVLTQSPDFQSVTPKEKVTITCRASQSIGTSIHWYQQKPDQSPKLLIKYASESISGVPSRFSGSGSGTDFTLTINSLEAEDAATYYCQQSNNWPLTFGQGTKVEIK , is geometric mean under 3?
not fulfilled

Same again, this time with VH5 + VL3 (antibody, V domains shown, Humanized IgG expressed in HEK293; also called humanized antibody VH5+VL3) VH: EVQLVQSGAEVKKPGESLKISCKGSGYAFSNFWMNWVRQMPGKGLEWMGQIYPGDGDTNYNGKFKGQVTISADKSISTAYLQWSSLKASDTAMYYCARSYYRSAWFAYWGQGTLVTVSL VL: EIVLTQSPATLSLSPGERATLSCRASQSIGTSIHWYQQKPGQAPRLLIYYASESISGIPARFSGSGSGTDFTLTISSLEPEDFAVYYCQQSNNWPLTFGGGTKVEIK
not fulfilled
